target: human sodium channel Nav 1.8 (Homo sapiens (Human), UniProt Q9Y5Y9); assay: Automated whole-cell voltage-clamp (ScreenPatch 384P), Nav 1.8 sodium current, Protocol 2; type: cell-based; settings: read-out: Nav1.8 IC50
Sequence (Q9Y5Y9 whole entry): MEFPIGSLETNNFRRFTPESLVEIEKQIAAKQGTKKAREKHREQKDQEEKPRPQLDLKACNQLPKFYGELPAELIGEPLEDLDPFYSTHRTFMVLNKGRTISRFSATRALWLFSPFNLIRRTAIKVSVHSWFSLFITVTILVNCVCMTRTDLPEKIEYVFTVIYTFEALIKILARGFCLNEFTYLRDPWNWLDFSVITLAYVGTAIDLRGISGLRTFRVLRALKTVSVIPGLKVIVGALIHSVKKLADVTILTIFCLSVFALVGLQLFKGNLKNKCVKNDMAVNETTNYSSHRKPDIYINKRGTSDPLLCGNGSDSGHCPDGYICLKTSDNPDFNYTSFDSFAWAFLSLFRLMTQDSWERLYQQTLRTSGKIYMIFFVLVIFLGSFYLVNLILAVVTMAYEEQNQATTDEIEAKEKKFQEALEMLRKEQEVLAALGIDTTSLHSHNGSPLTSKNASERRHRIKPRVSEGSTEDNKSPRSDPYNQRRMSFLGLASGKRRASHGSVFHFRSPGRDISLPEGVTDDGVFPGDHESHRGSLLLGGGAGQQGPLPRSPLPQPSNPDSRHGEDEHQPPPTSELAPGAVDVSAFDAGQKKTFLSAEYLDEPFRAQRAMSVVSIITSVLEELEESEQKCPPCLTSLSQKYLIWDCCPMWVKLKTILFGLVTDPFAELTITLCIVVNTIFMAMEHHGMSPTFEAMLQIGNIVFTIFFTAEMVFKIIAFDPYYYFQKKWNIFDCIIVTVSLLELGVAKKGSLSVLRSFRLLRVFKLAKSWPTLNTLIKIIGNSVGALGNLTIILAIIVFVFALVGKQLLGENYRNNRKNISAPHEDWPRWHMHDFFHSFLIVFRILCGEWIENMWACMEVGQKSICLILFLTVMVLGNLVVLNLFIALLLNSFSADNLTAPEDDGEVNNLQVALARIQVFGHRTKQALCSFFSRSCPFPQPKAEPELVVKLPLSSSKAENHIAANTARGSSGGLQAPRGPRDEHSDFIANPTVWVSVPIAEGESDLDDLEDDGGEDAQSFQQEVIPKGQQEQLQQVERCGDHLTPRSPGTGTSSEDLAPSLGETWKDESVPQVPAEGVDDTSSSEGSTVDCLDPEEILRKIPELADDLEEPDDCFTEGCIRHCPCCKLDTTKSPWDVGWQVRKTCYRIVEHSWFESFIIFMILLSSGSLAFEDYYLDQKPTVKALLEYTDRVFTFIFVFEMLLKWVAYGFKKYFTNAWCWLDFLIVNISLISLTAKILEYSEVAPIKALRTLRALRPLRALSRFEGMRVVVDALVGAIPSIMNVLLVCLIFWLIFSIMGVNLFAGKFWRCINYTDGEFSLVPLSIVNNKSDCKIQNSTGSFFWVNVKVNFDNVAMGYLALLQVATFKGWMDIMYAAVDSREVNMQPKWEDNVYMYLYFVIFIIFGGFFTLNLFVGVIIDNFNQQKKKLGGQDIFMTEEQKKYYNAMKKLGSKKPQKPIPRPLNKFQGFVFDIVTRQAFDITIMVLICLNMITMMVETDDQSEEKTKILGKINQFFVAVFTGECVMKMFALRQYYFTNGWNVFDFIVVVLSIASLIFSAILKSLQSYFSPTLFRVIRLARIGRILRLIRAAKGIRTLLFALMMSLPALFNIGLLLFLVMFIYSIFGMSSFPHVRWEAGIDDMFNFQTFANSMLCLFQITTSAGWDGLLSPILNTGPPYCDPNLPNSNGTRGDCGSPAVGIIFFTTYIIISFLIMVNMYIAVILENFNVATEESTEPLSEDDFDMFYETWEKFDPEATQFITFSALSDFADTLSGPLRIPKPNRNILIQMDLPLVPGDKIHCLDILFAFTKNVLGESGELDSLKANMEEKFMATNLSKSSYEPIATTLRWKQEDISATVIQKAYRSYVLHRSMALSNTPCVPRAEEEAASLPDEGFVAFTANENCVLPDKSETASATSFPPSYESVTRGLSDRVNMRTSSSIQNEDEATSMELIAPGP
Overview of recorded pIC50 for various molecules
// scale note: pIC50 = -log10(conc_M); give the bare number

These recorded examples may help you get a feel for the data.
>  <Smiles Representation>
CCOc1ccc(-c2cncc(C(=O)N/N=C/c3cccc(OC)c3Cl)n2)cc1

>  <Outcome Measure>
pIC50

>  <Numeric Result>
7.03

$$$$
>  <Smiles Representation>
COc1ccc(-c2cncc(C(=O)N/N=C/c3cccc(C)c3)n2)cc1

>  <Outcome Measure>
pIC50

>  <Numeric Result>
7.01

$$$$
>  <Smiles Representation>
COc1cc(/C=N/NC(=O)c2cncc(-c3ccc(OCSC)cc3)n2)cc(OC)c1

>  <Outcome Measure>
pIC50

>  <Numeric Result>
7.22

$$$$
>  <Smiles Representation>
CCCCOc1ccc(-c2cncc(C(=O)N/N=C/c3cc(OC)cc(OC)c3)n2)c(Cl)c1

>  <Outcome Measure>
pIC50

>  <Numeric Result>
6.55

$$$$
>  <Smiles Representation>
CCc1cncc(C(=O)N/N=C/c2cc(OC)cc(OC)c2)n1

>  <Outcome Measure>
pIC50

>  <Numeric Result>
6.04

$$$$
>  <Smiles Representation>
CCCOc1ccc(-c2cncc(C(=O)N/N=C/c3cc(OC)cc(OC)c3)n2)cc1

>  <Outcome Measure>
pIC50

>  <Numeric Result>
7.13

$$$$
>  <Smiles Representation>
COc1cc(/C=N/NC(=O)c2cncc(-c3ccc(OC4CC4)cc3)n2)cc(OC)c1

>  <Outcome Measure>
pIC50

>  <Numeric Result>
7.37

$$$$
>  <Smiles Representation>
CCOc1ccc(-c2nc(C(=O)N/N=C/c3cc(OC)cc(OC)c3)cnc2C(F)(F)F)cc1

>  <Outcome Measure>
pIC50

>  <Numeric Result>
6.17

$$$$

Query: Which measured pIC50 value corresponds to CCCCOc1ccc(-c2cncc(C(=O)N/N=C/c3cc(OC)cc(OC)c3)n2)cc1 ?
Reply: 6.99

Query: Then CCOc1ccc(-c2cncc(C(=O)N/N=C/c3cc(OC)cc(OC)c3)n2)c(C(F)(F)F)c1 ?
Reply: 6.30

Query: Then CCOc1ccc(-c2cncc(C(=O)N/N=C/c3cc(OC)cc(OC)c3)n2)cc1Cl ?
Reply: 6.62

Query: Then CC1=C(/C=N/NC(=O)c2cncc(-c3ccc(OC(C)C)cc3)n2)CCCCC1 ?
Reply: 7.03

Query: Then COc1cc(/C=N/NC(=O)c2cncc(-c3ccc(OCC(C)C)cc3Cl)n2)cc(OC)c1 ?
Reply: 6.53

Query: Then COc1ccc(-c2cncc(C(=O)N/N=C/c3ccccc3F)n2)cc1 ?
Reply: 6.75

Query: Then COc1ccc(-c2cncc(C(=O)N/N=C/c3ccc(Br)cc3)n2)cc1 ?
Reply: 6.12

###

target: human sodium channel Nav 1.7 (Homo sapiens (Human)); test: Automated whole-cell voltage-clamp (ScreenPatch 384P), Nav 1.7 sodium current, Protocol 2; assay type: cell-based; details: read-out: Nav1.7 IC50
Sequence (Q15858 whole entry): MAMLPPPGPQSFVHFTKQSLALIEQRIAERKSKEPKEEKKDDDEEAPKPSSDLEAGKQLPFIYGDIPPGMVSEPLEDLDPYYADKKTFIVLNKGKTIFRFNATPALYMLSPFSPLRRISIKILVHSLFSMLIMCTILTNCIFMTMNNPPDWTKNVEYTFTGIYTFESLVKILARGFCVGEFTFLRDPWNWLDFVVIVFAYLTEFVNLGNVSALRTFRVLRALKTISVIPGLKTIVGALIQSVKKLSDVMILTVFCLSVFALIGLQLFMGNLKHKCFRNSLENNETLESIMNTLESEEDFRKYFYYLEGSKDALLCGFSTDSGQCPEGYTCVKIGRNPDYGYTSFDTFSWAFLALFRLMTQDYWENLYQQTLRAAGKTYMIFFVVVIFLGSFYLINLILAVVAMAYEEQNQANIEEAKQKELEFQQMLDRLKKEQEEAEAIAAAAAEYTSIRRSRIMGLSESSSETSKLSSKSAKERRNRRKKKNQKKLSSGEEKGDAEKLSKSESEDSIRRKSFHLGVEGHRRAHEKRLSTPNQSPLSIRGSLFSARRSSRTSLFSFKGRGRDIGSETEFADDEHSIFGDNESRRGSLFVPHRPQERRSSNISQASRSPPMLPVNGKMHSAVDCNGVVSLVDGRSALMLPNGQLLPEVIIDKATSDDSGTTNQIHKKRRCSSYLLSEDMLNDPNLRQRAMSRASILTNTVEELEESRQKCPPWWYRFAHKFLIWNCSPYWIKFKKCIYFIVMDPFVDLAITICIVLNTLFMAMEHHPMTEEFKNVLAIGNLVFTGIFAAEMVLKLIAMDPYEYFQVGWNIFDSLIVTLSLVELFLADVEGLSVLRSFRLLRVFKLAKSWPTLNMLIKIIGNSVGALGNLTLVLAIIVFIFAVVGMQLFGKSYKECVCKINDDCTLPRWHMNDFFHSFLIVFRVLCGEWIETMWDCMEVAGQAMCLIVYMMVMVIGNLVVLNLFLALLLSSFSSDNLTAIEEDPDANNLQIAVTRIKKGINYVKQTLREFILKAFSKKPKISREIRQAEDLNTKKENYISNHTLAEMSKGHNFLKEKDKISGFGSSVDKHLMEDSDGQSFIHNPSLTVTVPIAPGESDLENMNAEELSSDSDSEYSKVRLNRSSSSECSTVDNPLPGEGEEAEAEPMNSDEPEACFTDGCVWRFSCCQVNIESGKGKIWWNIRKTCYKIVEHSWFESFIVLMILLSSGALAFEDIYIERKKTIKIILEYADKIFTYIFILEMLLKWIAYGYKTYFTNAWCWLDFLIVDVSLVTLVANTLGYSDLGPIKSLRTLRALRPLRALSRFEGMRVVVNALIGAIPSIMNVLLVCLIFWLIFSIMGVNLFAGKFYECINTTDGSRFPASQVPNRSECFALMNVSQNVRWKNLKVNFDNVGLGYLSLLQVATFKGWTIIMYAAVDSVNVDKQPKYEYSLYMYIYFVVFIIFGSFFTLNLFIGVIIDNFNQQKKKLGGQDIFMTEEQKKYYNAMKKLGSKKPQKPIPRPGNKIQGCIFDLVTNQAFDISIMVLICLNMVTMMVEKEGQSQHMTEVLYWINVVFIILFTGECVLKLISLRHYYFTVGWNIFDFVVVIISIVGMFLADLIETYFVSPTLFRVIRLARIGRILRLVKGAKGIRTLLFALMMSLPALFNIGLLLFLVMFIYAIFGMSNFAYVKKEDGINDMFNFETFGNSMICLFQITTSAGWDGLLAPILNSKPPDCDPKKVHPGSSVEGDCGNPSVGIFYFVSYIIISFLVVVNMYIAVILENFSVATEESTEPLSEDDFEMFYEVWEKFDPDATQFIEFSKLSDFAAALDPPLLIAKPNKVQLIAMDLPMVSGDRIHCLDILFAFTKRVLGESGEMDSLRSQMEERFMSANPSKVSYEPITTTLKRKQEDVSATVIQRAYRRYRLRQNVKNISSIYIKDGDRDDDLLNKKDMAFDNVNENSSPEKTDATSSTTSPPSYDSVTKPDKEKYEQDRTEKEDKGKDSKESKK
Outcome Measure: pIC50
// scale note: pIC50 = -log10(conc_M); give the bare number

These recorded examples may help you get a feel for the data.
>  <Smiles Representation>
CCOc1ccc(-c2cncc(C(=O)N/N=C/c3cccc(OC)c3)n2)c(OCC)c1

>  <pIC50>
6.64

$$$$
>  <Smiles Representation>
COc1ccc(-c2cncc(C(=O)N/N=C/c3ccc(F)cc3)n2)cc1

>  <pIC50>
5.28

$$$$

Query: Which measured pIC50 value corresponds to CCCOc1cc(/C=N/NC(=O)c2cncc(-c3ccc(OCC)cc3)n2)cc(OC)c1 ?
Reply: 6.65
